system: Mycobacterium kansasii; test: Antimycobacterial activity against Mycobacterium kansasii 6509/96 after 14 days by microdilution method; assay type: functional; details: 6509/96, 336 h
valueKind: MIC (µM)
Record the value in µM, omitting the unit from your answer.

Ask: Would you mind telling me what MIC value was observed for "Fc1ccc(Cn2c(=S)oc3ccc(Cl)cc3c2=S)cc1" ?
Result: 8

Ask: Would you mind telling me what MIC value was observed for "O=c1oc2ccc(Cl)cc2c(=O)n1Cc1ccc(Cl)c(Cl)c1" ?
Result: 62.5

Ask: Would you mind telling me what MIC value was observed for "S=c1oc2ccc(Br)cc2c(=S)n1Cc1ccc(Cl)c(Cl)c1" ?
Result: 16

Value source: ChEMBL document CHEMBL1177835
